Tested on: A549
Assay explanation: NCI tumour cell line growth inhibition, 48 h
Active and inactive are the calls of the source. Cut-off read from the data, not from the text of the source: active = GI50 up to about 1.1 µM and inactive = higher.
Observation type: GI50

[[record]]
molecule = "Oc1ccc(C(=C(Br)c2ccccc2)c2ccc(O)cc2)cc1"
observation_type = "GI50"
result = "4.4 µM (inactive)"

[[record]]
molecule = "CON(C)C(=O)C(Cc1ccccc1)NC(=O)OC(C)(C)C (stereo unspecified)"
observation_type = "GI50"
result = "> 100 µM (inactive)"

[[record]]
molecule = "CC1=CC2(C)C=C[C@@H]1C(=O)[C@@]1(C)CC[C@@](O)(C(C)C)[C@H]1CC2"
observation_type = "GI50"
result = "34.6 µM (inactive)"

[[record]]
molecule = "CN(C)N1C(=O)S/C(=C\\c2ccc([N+](=O)[O-])cc2)C1=O"
observation_type = "GI50"
result = "> 100 µM (inactive)"

[[record]]
molecule = "CN(C)c1ccc(/C=C2\\Oc3ccccc3C2=O)cc1"
observation_type = "GI50"
result = "> 100 µM (inactive)"


Now let's try a different one.
Measured on A549, C/C=C/C[C@@H](C)C(=O)C1C(=O)N[C@@H](C(C)C)C(=O)N(C)CC(=O)N(C)[C@@H](CC(C)C)C(=O)N[C@@H](C(C)C)C(=O)N(C)[C@@H](CC(C)C)C(=O)N[C@@H](C)C(=O)N[C@@H](C)C(=O)N(C)[C@@H](CC(C)C)C(=O)N(C)[C@@H](CC(C)C)C(=O)N(C)[C@@H](C(C)C)C(=O)N1C (stereo partly specified) has a documented GI50 of 3.97 µM (inactive)

###

System: ACHN
Assay explanation: NCI tumour cell line growth inhibition, 48 h
The source made the active and inactive calls. Cut-off read from the data, not from the text of the source: active = GI50 up to about 1.1 µM and inactive = higher.
Observation type: GI50

[[record]]
molecule = "O=S(=O)(c1ccccc1)N1CCC1c1ccccc1 (stereo unspecified)"
result = "> 100 µM (inactive)"


Entry `CCOc1ccc(N/C(=C(/C(Cl)=C(/Cl)Nc2ccccc2)[N+](=O)[O-])n2nnc3ccccc32)cc1` ; GI50 = 25.8 µM (inactive)

Recorded result, `Cc1cc2nc3c(C#N)c4c(c(Nc5ccc(Cl)cc5)n3c2cc1C)CCC4` , GI50: 20.6 µM (inactive)

Recorded result, `O=[N+]([O-])c1nccn1CCCNc1ccnc2cc(Cl)ccc12` , GI50: 4.75 µM (inactive)

Recorded GI50 (molecule C[C@]12CC[C@H](O)CC1=CC[C@@H]1[C@@H]2CC[C@]2(C)C(=O)CC[C@@H]12 [PRASTERONE] ): > 100 µM (inactive)

Note to self: GI50 recorded for CC1c2cc(c3c(c2O)CN([C@@H](C)C2CCCCC2)CO3)C(C)c2cc(c3c(c2O)CN([C@@H](C)C2CCCCC2)CO3)C(C)c2cc(c3c(c2O)CN([C@@H](C)C2CCCCC2)CO3)C(C)c2cc1c1c(c2O)CN([C@@H](C)C2CCCCC2)CO1 (stereo partly specified) was 1.47 µM (inactive)

Entry under test: `CC(=O)Oc1cc(/C=C/c2ccc(O)cc2)cc(OC(C)=O)c1` . Its GI50 was 9.59 µM (inactive)

Input O=C(CC1C(=O)Nc2ccccc2[S+]1[O-])Nc1ccccc1 (stereo unspecified) . Output GI50: 59.7 µM (inactive)

GI50 recorded for this molecule, `CC(=O)OCCOCn1cnc2c(Cl)nc(Cl)nc21` , is 16.5 µM (inactive)

What the record says about `CN(C)c1cccc(/C=C(\C#N)c2ccccc2)c1` : GI50 is 14.4 µM (inactive)

Record `CN(C)c1nc(-c2ccccc2)c(C(=O)c2c[nH]c3ccccc23)s1` , field GI50: 30.5 µM (inactive)

# molecule `CSC1(SC2=NCCN2)SC2(NCCN2)S1` ; its GI50 = 19 µM (inactive)

###

System: MDA-MB-231
Assay explanation: NCI tumour cell line growth inhibition, 48 h
Active and inactive are the calls of the source. Cut-off read from the data, not from the text of the source: active = GI50 up to about 1.1 µM and inactive = higher.
Returns: one label drawn from active, inactive

Example entries and their recorded answers appear below.
[[record]]
molecule = "O=C(Cc1ccccc1)Nc1nc2ccc(Cl)cc2c2nc(-c3ccco3)nn12"
group = "inactive"

[[record]]
molecule = "COc1ccc2c(=O)oc3c(OC)cc(CCN(C)C)c4c(=O)oc1c2c34"
group = "inactive"

[[record]]
molecule = "CC1c2cc(c3c(c2O)CN([C@@H](C)C2CCCCC2)CO3)C(C)c2cc(c3c(c2O)CN([C@@H](C)C2CCCCC2)CO3)C(C)c2cc(c3c(c2O)CN([C@@H](C)C2CCCCC2)CO3)C(C)c2cc1c1c(c2O)CN([C@@H](C)C2CCCCC2)CO1 (some centres undefined)"
group = "inactive"

[[record]]
molecule = "Clc1ccc(OCc2nnc3sc(-c4ccc(-c5ccc(Cl)cc5Cl)o4)nn23)c(Cl)c1"
group = "inactive"

[[record]]
molecule = "COc1cc(C(=O)C2CC3(CCC2(O)c2cc(OC)c(OC)c(OC)c2)CC(=O)Nc2ccccc2C3=O)cc(OC)c1OC (centres undefined)"
group = "inactive"

[[record]]
molecule = "CN(c1ccc(Cl)cc1)S(=O)(=O)c1ccc([N+](=O)[O-])cc1"
group = "inactive"

[[record]]
molecule = "COc1ccc2c(c1)Cc1c(NCCN(C)C)ccc(C(=O)NCCCN(C)CCCNC(=O)c3ccc(NCCN(C)C)c4c3Nc3ccc(OC)cc3C4)c1N2"
group = "active"

[[record]]
molecule = "Cc1ccc2c(c1)C(=O)C1(C2)Cc2ccc(C)cc2C1=O"
group = "inactive"


Let's switch to this molecule now.
Fill in: this test's call for `Cc1nnc2nc(-c3ccc(Cl)cc3Cl)cc(-c3ccc(Cl)cc3)n12` is ___
inactive

###

Item-by-item account of GI50
Tested on: T47D
Assay explanation: NCI tumour cell line growth inhibition, 48 h
Active and inactive are the calls of the source. Cut-off read from the data, not from the text of the source: active = GI50 up to about 1.1 µM and inactive = higher.

Illustrative cases are given below, each with its answer.
[[record]]
compound = "O=C1CC2(CCC(O)(c3cccc4ccccc34)C(C(=O)c3cccc4ccccc34)C2)C(=O)c2ccccc2N1 (stereo not given)"
result = "34.5 µM (inactive)"

[[record]]
compound = "COc1ccc(C(SCCO)(c2ccccc2)c2ccc(OC)cc2)cc1"
result = "11.9 µM (inactive)"


GI50 in this record for COc1cc(C(=O)C2CC3(CCC2(O)c2cc(OC)c(OC)c(OC)c2)CC(=O)Nc2ccccc2C3=O)cc(OC)c1OC (stereo not given) : 36.6 µM (inactive)

// GI50 lookup, compound = `COC(=O)C(=O)Nc1cc2c3c(c1)Oc1cccc4c1C3(C)c1c(cccc1O2)O4` , result: > 61.7 µM (inactive)

Form field GI50, entry `Cc1ccc2c(c1)C(=O)C1(C2)Cc2ccc(C)cc2C1=O` : > 100 µM (inactive)

###

Tested on: SN12C
Assay explanation: NCI tumour cell line growth inhibition, 48 h
Active and inactive are the calls of the source. Rule as the data show it: active = GI50 up to about 1.1 µM and inactive = higher.
Observation type: GI50

Here's what some known entries look like.
[[record]]
compound = "O=C1C(N2CCNCC2)=C(Cl)C(=O)c2ncccc21"
result = "> 10 µM (inactive)"

[[record]]
compound = "COc1ccc(C(SCCO)(c2ccccc2)c2ccc(OC)cc2)cc1"
result = "14.5 µM (inactive)"

[[record]]
compound = "O=C(Cc1nc2ccccc2s1)C(=O)Nc1cccc(C(F)(F)F)c1"
result = "> 100 µM (inactive)"

[[record]]
compound = "N#Cc1nnn(-c2ccc(Br)cc2)c1O"
result = "> 100 µM (inactive)"

[[record]]
compound = "N#CC(C#N)=Cc1ccc(Oc2ccccc2)cc1"
result = "14.1 µM (inactive)"


Lab note: measured GI50 of CCCCCCCCCCCCCCCCOCC(Cl)COP(=O)(O)OP(=O)(O)OCC1OC(n2cnc3c(N)ncnc32)C(O)C1O (centres undefined) was > 100 µM (inactive)

`O=C1Nc2ccccc2C(=O)/C1=C/NC(=S)NCCc1ccccc1` yielded GI50 of > 100 µM (inactive)

For record `COc1ccc(CCc2ccc3c(c2)OCO3)cc1` the listed GI50 is > 100 µM (inactive)

For this compound ( O=C1C(Cl)C(c2ccccc2Cl)N1n1cnc2ccccc2c1=O (centres undefined) ), measured GI50 is > 100 µM (inactive)

Consider C=CC1(C)CCC2=C(CCC3C(C)(C(=O)OC)CCCC23C)C1=O (centres undefined) . Its measured GI50 is 19 µM (inactive)

Record `O=S(=O)(O)c1ccc2c(/N=N/c3cccc4ccccc34)c(O)c(S(=O)(=O)O)cc2c1` , field GI50: > 100 µM (inactive)

`Oc1nc(-c2ccc3ccccc3c2)nc2ccccc12` has a reported GI50 of 54.1 µM (inactive)

The compound C/C(=N\NC(N)=S)C(CN(CC(C)C)CC(C)C)C(=O)Nc1ccc(C)cc1C (centres undefined) showed GI50 equal to > 100 µM (inactive)

// field: GI50; key: O=C1C2C3CC(C4C5C=CC(C5)C34)C2C2C3CC(C12)C1C2C=CC(C2)C31 (centres undefined) ; value = > 100 µM (inactive)
